The reported measurements were obtained from PubChem BioAssay (NCI).

test system: NCI-H23 lung; experiment: NCI tumour cell line growth inhibition, 48 h
I'd appreciate it if you could supply GI50 values for the items below.

Q: Any idea what GI50 came out for `Fc1ccc(-c2cc(-c3cn[nH]c3-c3ccccn3)ccn2)cc1` on NCI-H23 lung?
Ans: > 12.8 µM

Q: And the next one, `COc1ccc(-c2conc2-c2ccccc2)cc1` ?
Ans: 0.549 µM

Q: Repeat for the following compound: `O=c1c2ccccc2c(=O)c2c1sc1c(=O)c3ccc(O)cc3c(=O)c12`
Ans: 0.181 µM

Q: Likewise for `CC(C)(C)OC(=O)n1c(Cl)c(C(=O)N=C=S)c2ccccc21` ?
Ans: 28.4 µM

Q: Continue with N#CC1=C(N)Oc2c(sc3c(Br)cccc23)C1c1ccc(F)cc1 (centres undefined)
Ans: 0.416 µM

Q: Request: `COc1cc(-c2nn3c(=O)n(-c4ccc(Cl)cc4)c(=O)nc3s2)cc(OC)c1OC`
Ans: > 50 µM

Q: Item: `COc1ccc(-c2nn(-c3cccc(Cl)c3)cc2-c2cc(-c3cccs3)no2)cc1`
Ans: 3.82 µM

Q: Next compound up: `Cc1cc2c(-c3nc4ccccn4c3NC34CC5CC(CC(C5)C3)C4)c(O)c(O)cc2c(O)c1-c1c(C)cc2c(-c3nc4ccccn4c3NC34CC5CC(CC(C5)C3)C4)c(O)c(O)cc2c1O`
Ans: 0.137 µM

Q: Similarly, `O=C(Nc1nc2ccc(F)cc2s1)c1cccnc1Nc1ccc(Cl)cc1Cl` ?
Ans: 2.28 µM

###

Assign TGI to each entry below.
tested on: RPMI-8226 leukemia; assay: NCI tumour cell line growth inhibition, 48 h

Q: Give the reported TGI for O=C1OC(c2ccc(Cl)c3ccccc23)c2ccccc21 (stereo not given) (system: RPMI-8226 leukemia).
Ans: > 100 µM

Q: Then `COc1ccc(C(=O)/C=C/c2ccc(OCCCCCCCCCCOc3ccc(/C=C/C(=O)c4ccc(OC)c(OC)c4)cc3)cc2)c(OC)c1` ?
Ans: > 100 µM

Q: What would you report for `Fc1ccc(-c2cc(-c3cn[nH]c3-c3ccccn3)ccn2)cc1` ?
Ans: > 25 µM

Q: Also OC(CCN1CCN(CCOC(c2ccc(F)cc2)c2ccc(F)cc2)CC1)c1ccc(Br)cc1 (stereo not given) ?
Ans: 6.93 µM

Q: Continue with CCOC(=O)C(NC(=O)CC)(Nc1ccccc1F)C(F)(F)F (stereo not given)
Ans: > 100 µM

###

test system: ACHN renal; experiment: NCI tumour cell line growth inhibition, 48 h
Give GI50 for every item shown.

Q: Write down the reported GI50 of `O=C(Nc1cccc(Cl)c1)c1cc(Cl)ccc1O` , test system: ACHN renal.
Ans: 1.14 µM

Q: Try this molecule too: `COc1cc(/C=C2\C(=O)Nc3ccc(Br)cc32)cc(OC)c1OC`
Ans: 31.9 µM

Q: Continue with COc1ccc(C2NC(=S)NC3=C2COc2ccc(F)cc23)cc1OC (stereo not drawn)
Ans: 13 µM

###

tested on: A498 renal; assay: NCI tumour cell line growth inhibition, 48 h
Recorded TGI determines the group label, using class A: < 3 µM; class B: ≥ 3 µM and < 20 µM; class C: ≥ 20 µM

Q: Which bin should I file CCCCCCCCCCCCNC(=O)[C@H]1CSC(c2ccsc2)N1 (stereo partly drawn) under?
Ans: class B

Q: What would you report for `C=CCN(c1cc(OC)c2[nH]c(C(=O)O)c(C)c2c1[N+](=O)[O-])S(C)(=O)=O` ?
Ans: class C

Q: Try this molecule too: CCC(C)C(NC(=O)C(CCCC[N+](=N)N)NC(=O)C(CCCC[N+](=N)N)NC(=O)c1ccc(OC)cc1)C(=O)NC(CCCC[N+](=N)N)C(=O)N1CCCC1C(=O)NC(CCCCN)C(=O)NC(CC(C)C)C(N)=O (stereo not drawn)
Ans: class C

Q: // next record CN1C=C(C(N)=O)C2CC(O)[C@@](NC(=O)CS(N)(=O)=O)(C(=O)O)C2C1 (stereo partly drawn)
Ans: class B

Q: Now try `C[N+]1(CCCCN2c3ccccc3Sc3cc(N=[N+]=[N-])ccc32)CCN(C(=O)CCNC(=O)Cc2ccc(C(=O)c3ccccc3)cc2)CC1` .
Ans: class C

Q: Also, `COc1ccc(-c2conc2-c2ccccc2)cc1` please.
Ans: class A

Q: CCCCCCCCCCCCCCCCCCNC(=O)[C@H]1CSC(c2ccc(F)c(OC)c2)N1 (stereo partly drawn) , same question.
Ans: class C

Q: Ok, now `COc1ccc(-c2oc3cc(OC)ccc3c(=O)c2O)cc1`
Ans: class C

Q: Another molecule to look at: `COc1ccccc1-c1nccc(COc2ccccc2C[C@@H](Oc2ncnc3sc(-c4ccc(F)cc4)c(-c4ccc(OCCN5CCN(C)CC5)c(Cl)c4C)c23)C(=O)O)n1`
Ans: class A

Q: Same thing, different molecule: `O=C1c2cc3c(cc2-c2c1c1cc(F)c(F)cc1c(=O)n2C[C@H](O)CO)OCO3`
Ans: class A

Q: Note, next up: `COc1ccc(-c2nc(/C=N/Nc3cc(C)nc4ccc(Br)cc34)c(C)o2)cc1`
Ans: class A

Q: Try the molecule COC(=O)Cc1c2n(c3ccccc13)C(=O)N1c3ccccc3C(CC(=O)OC)C21 (stereo not drawn)
Ans: class C

Q: What do you get for `O=C(/C(=N/Nc1cn[nH]c(=O)c1Cl)c1ccccc1)c1ccccc1` ?
Ans: class C

Q: Same question, `CC(C)(C)C#CI1OC(=O)c2ccccc21` this time
Ans: class C

Q: Likewise for `CNc1ccc(N=Nc2cccc3ncccc23)cc1` ?
Ans: class C

Q: Follow-up item: O=C(O)C12C3C4(C(=O)O)C1C1(C(=O)O)C2C3(C(=O)O)C41 (stereo not drawn)
Ans: class C

Q: Try `CC(=O)[O-].O=[N+]([O-])c1ccc([O-])c(C=NCCN=Cc2cc([N+](=O)[O-])ccc2[O-])c1.[Mn+3]` next.
Ans: class C

Q: Same question for C/C(=N\O)[C@H]1CC[C@@]2(C)[C@@H]3CC[C@H]4C(C)(C)/C(=N/O)CC[C@@]45CC35CC[C@]12C (stereo partly drawn) please.
Ans: class B

###

test system: HT29 colon; experiment: NCI tumour cell line growth inhibition, 48 h
For each entry below, report its TGI value.

Q: Missing value: TGI, HT29 colon, entry `Cc1cc2c(-c3nc4ccccn4c3NC34CC5CC(CC(C5)C3)C4)c(O)c(O)cc2c(O)c1-c1c(C)cc2c(-c3nc4ccccn4c3NC34CC5CC(CC(C5)C3)C4)c(O)c(O)cc2c1O` . Fill in?
Ans: > 25 µM

Q: Here is the next compound: CC1(C)Oc2ccccc2N2O[C@@H]3C(=O)N(c4ccccc4)C(=O)[C@@H]3C21c1ccccc1 (stereo partly specified)
Ans: 68.5 µM

Q: Would you mind doing CCC(C)C(NC(=O)C(CCCC[N+](=N)N)NC(=O)C(CCCC[N+](=N)N)NC(=O)c1ccc(OC)cc1)C(=O)NC(CCCC[N+](=N)N)C(=O)N1CCCC1C(=O)NC(CCCCN)C(=O)NC(CC(C)C)C(N)=O (stereo unspecified) as well?
Ans: > 100 µM

Q: Lookup `Cc1cc(C)c2nccc(NCCCN(C)C)c2c1[N+](=O)[O-]`
Ans: 41.5 µM

Q: What about `C=C(C[N+](C)(C)C)N/N=C/c1oc(-c2ccc(OC)c(OC)c2)c(-c2ccc(OC)c(OC)c2)c1[N+](=O)[O-]` ?
Ans: 32.1 µM

Q: Same lookup for CCCCCCCCCCCCNC(=O)[C@H]1CSC(c2ccsc2)N1 (stereo partly specified) , please.
Ans: 1.83 µM

Q: How about `COc1ccc(-c2nn(-c3cccc(Cl)c3)cc2/C=C2\C(=N)N(c3ccccc3)N=C2N)cc1` ?
Ans: 24.5 µM

Q: Try this compound next: N#CC1=C(N)NC(=S)C(C#N)C12Nc1ccccc1S2 (stereo unspecified)
Ans: 77.7 µM

Q: // same read-out, input: `COc1cc(/C=C2\C(=O)Nc3ccc(Br)cc32)cc(OC)c1OC`
Ans: > 100 µM

Q: Now try `O=C1Cc2ccccc2CCc2ccccc21` .
Ans: > 100 µM

Q: Same lookup for O=C1OC(c2ccc(Cl)c3ccccc23)c2ccccc21 (stereo unspecified) , please.
Ans: > 100 µM

Q: Queued: `Cc1cc([C@H](C)Nc2nccc(N3C(=O)OC[C@@H]3[C@H](C)F)n2)ncc1-c1ccnc(C(F)(F)F)c1`
Ans: > 100 µM

Q: Thanks! And O=C(O)C(CS)N=Cc1nc(-c2ccccc2)oc1O (stereo unspecified) ?
Ans: > 100 µM

Q: Likewise for `COC(=O)[C@@H]1[C@H]2CC[C@]3(C)[C@@H](OC(C)=O)CC[C@H]3[C@@H]2CC[C@H]1C1(C)SCCS1` ?
Ans: 30 µM

Q: Further, for `COc1ccc(-c2cn(-c3cc(OC)c(OC)c(OC)c3)c(=O)n2-c2ccccc2)cc1` ?
Ans: > 100 µM

Q: Please give the result for CCOC(=O)C(NC(=O)CC)(Nc1ccccc1F)C(F)(F)F (stereo unspecified) too.
Ans: > 100 µM

Q: Please give the result for `C=C1c2ccccc2N(S(=O)(=O)c2ccc(C)cc2)C12CCCCC2` too.
Ans: > 100 µM

Q: Please do the same for O=C1CCC(CCc2nc3ccccc3[nH]2)(c2ccccc2)C(=O)N1 (stereo unspecified) as well.
Ans: > 100 µM

Q: What would you report for `Cc1ccc(N2C(=O)/C(=C3\Sc4c(nc(C)n(C)c4=O)N3c3ccccc3)SC2=S)cc1` ?
Ans: > 100 µM

Q: Param item: `Fc1ccc(-c2cc(-c3cn[nH]c3-c3ccccn3)ccn2)cc1`
Ans: > 25 µM

Q: Check `Nc1ccc2c(SCC(=O)Nc3ccccc3-c3ccccc3NC(=O)CSc3c4ccccc4nc4cc(N)ccc34)c3ccccc3nc2c1` too.
Ans: > 100 µM

Q: And for `Brc1ccc(/C(N=N/C(=N\Sc2ccccc2)c2ccc(Br)cc2)=N/Sc2ccccc2)cc1` ?
Ans: > 100 µM

Q: Next record, please: `CC(C)(C)OC(=O)n1c(Cl)c(C(=O)N=C=S)c2ccccc21`
Ans: > 100 µM

Q: Same read-out for `O=C(NOC(=O)c1ccc([N+](=O)[O-])cc1)c1ccc(Cl)cc1` ?
Ans: > 100 µM

Q: Follow-up entry: CC(=O)N=S(NC(=O)c1ccc(C)cc1)C(Cl)(Cl)Cl (stereo unspecified)
Ans: 60.6 µM

Q: What do we get for Cc1ccc2c(C(C[N+](=O)[O-])c3ccco3)c(-c3ccccc3)[nH]c2c1 (stereo unspecified) ?
Ans: > 100 µM

Q: Entry `CC(=O)[O-].O=[N+]([O-])c1ccc([O-])c(C=NCCN=Cc2cc([N+](=O)[O-])ccc2[O-])c1.[Mn+3]` please
Ans: > 100 µM

Q: Try the compound `CNc1ccc(N=Nc2cccc3ncccc23)cc1`
Ans: > 100 µM

Q: Note, next up: `CCOC(=O)/N=c1\ssc(Cl)c1Cl`
Ans: > 100 µM

Q: How about this compound: `CC(=O)c1c(Nc2ccc(F)c(F)c2F)[nH]c2c(F)cc(F)cc2c1=O`
Ans: 17.5 µM

Q: Entry to check: COc1cccc(C2CC(=O)Nc3cc4c(cc32)CCC4)c1OC (stereo unspecified)
Ans: 12.6 µM
